Value source: patent US20110105389A1

target: GHS-R1a receptor (HEK293 cells expressing GHS-R1a receptor) (Homo sapiens, UniProt Q92847)
Construct: host or cells: HEK293
Sequence (Q92847 whole entry): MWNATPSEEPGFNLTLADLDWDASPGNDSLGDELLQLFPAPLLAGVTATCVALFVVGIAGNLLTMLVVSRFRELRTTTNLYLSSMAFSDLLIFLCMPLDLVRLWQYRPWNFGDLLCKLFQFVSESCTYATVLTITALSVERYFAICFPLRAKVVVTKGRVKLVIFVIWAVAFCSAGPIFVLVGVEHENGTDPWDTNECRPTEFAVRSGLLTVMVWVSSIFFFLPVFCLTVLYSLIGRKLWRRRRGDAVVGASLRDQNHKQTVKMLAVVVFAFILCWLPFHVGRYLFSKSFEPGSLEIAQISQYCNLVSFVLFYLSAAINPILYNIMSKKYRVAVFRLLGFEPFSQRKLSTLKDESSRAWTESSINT
test: Fluorescence functional assay (ghrelin receptor), Method B2, agonist and antagonist mode
Assay type: cell-based
particulars: functional activity as an antagonist at the ghrelin receptor, Methods B2 and B3
measure-name: Antagonist Activity

molecule	measure-name	result
CC(C)[C@@H]1NCCOc2cccc(F)c2CCCNC(=O)[C@@H](Cc2ccccc2)NC(=O)[C@H](C(C)O)N(C)C1=O (stereo partly drawn)	Antagonist Activity	C (C = 10-100 nM)
COc1cccc(C[C@H]2NC(=O)[C@H](C(C)O)N(C)C(=O)[C@H](C(C)C)NCCOc3cccc(F)c3CC[C@@H](C)NC2=O)c1 (stereo partly drawn)	Antagonist Activity	B (B = 1-10 nM)
CC(O)[C@H]1C(=O)N[C@H](Cc2ccccc2)C(=O)NCCCc2cccc3c2OC(CC3)CN[C@@H](C2CC2)C(=O)N1C (stereo partly drawn)	Antagonist Activity	B (B = 1-10 nM)
CC(C)[C@@H]1NCCOc2ccccc2CC[C@@H](C(F)(F)F)NC(=O)[C@@H](Cc2ccccc2)NC(=O)[C@H](C(C)O)N(C)C1=O (stereo partly drawn)	Antagonist Activity	B (B = 1-10 nM)
CC(C)[C@@H]1NCCOc2cc(F)ccc2CCCNC(=O)[C@@H](Cc2cccc(F)c2)NC(=O)[C@H](C(C)O)N(C)C1=O (stereo partly drawn)	Antagonist Activity	B (B = 1-10 nM)
CC(C)[C@@H]1NCCOc2ccccc2CC[C@@H](C)NC(=O)[C@@H](Cc2ccc(F)c(F)c2)NC(=O)[C@H](C(C)O)N(C)C1=O (stereo partly drawn)	Antagonist Activity	A (A <1 nM)
CCC(C)[C@@H]1NCCOc2ccccc2/C=C/CNC(=O)[C@@H](Cc2ccccc2F)NC(=O)[C@H](C(C)O)N(C)C1=O (stereo partly drawn)	Antagonist Activity	C (C = 10-100 nM)
CC(O)[C@H]1C(=O)N[C@H](Cc2ccccc2)C(=O)N[C@@H](C)/C=C/c2ccccc2OCCN[C@@H](C2CC2)C(=O)N1C (stereo partly drawn)	Antagonist Activity	C (C = 10-100 nM)
CCC1CCc2ccc(F)cc2OC(C)CNC(C2(C)CC2)C(=O)N(C)C(C(C)O)C(=O)NC(Cc2ccccc2)C(=O)N1 (stereo not drawn)	Antagonist Activity	C (C = 10-100 nM)
CC(C)[C@@H]1NCCOc2ccc(F)cc2CC[C@@H](C)NC(=O)[C@@H](Cc2ccc(F)cc2)NC(=O)[C@H](C(C)O)N(C)C1=O (stereo partly drawn)	Antagonist Activity	B (B = 1-10 nM)
CCC1CCc2ccc(F)cc2OCCNC(C(C)C)C(=O)N(C)C(C(C)O)C(=O)NC(Cc2c[nH]c3ccc(F)cc23)C(=O)N1 (stereo not drawn)	Antagonist Activity	B (B = 1-10 nM)
CC(O)[C@H]1C(=O)N[C@H](Cc2ccccc2)C(=O)NCC#Cc2ccccc2OCCN[C@@H](C2(C)CC2)C(=O)N1C (stereo partly drawn)	Antagonist Activity	A (A <1 nM)
CCC1CCc2ccc(F)cc2OCCNC(C(C)C)C(=O)N(C)C(C(C)O)C(=O)NC(C(C)c2ccccc2)C(=O)N1 (stereo not drawn)	Antagonist Activity	C (C = 10-100 nM)
CC(C)[C@@H]1NCCOc2cc(F)ccc2CC[C@@H](C)NC(=O)[C@@H](Cc2c[nH]c3ccccc23)NC(=O)[C@H](C(C)O)N(C)C1=O (stereo partly drawn)	Antagonist Activity	B (B = 1-10 nM)
CC(C)[C@@H]1NCCOc2cc(F)ccc2CC[C@@H](C)NC(=O)[C@@H](Cc2ccc(F)cc2)NC(=O)[C@H](C(C)O)N(C)C1=O (stereo partly drawn)	Antagonist Activity	B (B = 1-10 nM)
CCC1CCc2ccc(Cl)cc2OCCNC(C(C)C)C(=O)N(C)C(C(C)O)C(=O)NC(Cc2c[nH]c3ccccc23)C(=O)N1 (stereo not drawn)	Antagonist Activity	C (C = 10-100 nM)
CC[C@@H]1CCc2ccc(F)cc2OCCN[C@@H](C(C)C)C(=O)N(C)[C@@H](C(C)O)C(=O)N[C@H](Cc2ccc(Cl)cc2)C(=O)N1 (stereo partly drawn)	Antagonist Activity	B (B = 1-10 nM)
CCC1CCc2ccccc2OCCNC(C(C)C)C(=O)N(C)C(C(C)O)C(=O)NC(Cc2c[nH]c3ccc(F)cc23)C(=O)N1 (stereo not drawn)	Antagonist Activity	B (B = 1-10 nM)
CC(O)[C@H]1C(=O)N[C@H](Cc2c[nH]c3ccccc23)C(=O)N[C@H](C)C#Cc2ccc(F)cc2O[C@H](C)CN[C@@H](C2(C)CC2)C(=O)N1C (stereo partly drawn)	Antagonist Activity	B (B = 1-10 nM)
CC(C)[C@@H]1NCCOc2cc(F)ccc2CC[C@@H](C)NC(=O)[C@@H](Cc2ccccc2)NC(=O)[C@H](C(C)O)N(C)C1=O (stereo partly drawn)	Antagonist Activity	A (A <1 nM)
CC(C)[C@@H]1NCCOc2ccccc2CC[C@@H](C)NC(=O)[C@@H](Cc2cccc(C#N)c2)NC(=O)[C@H](C(C)O)N(C)C1=O (stereo partly drawn)	Antagonist Activity	B (B = 1-10 nM)
CCC(C)C1NCCOc2cccc(F)c2C=CCNC(=O)C(Cc2ccc(Cl)cc2)NC(=O)C(C(C)O)N(C)C1=O (stereo not drawn)	Antagonist Activity	C (C = 10-100 nM)
CC(C)[C@@H]1NCCOc2ccccc2CC[C@@H](C)NC(=O)[C@@H](Cc2csc3ccccc23)NC(=O)[C@H](C(C)O)N(C)C1=O (stereo partly drawn)	Antagonist Activity	A (A <1 nM)
